Would you mind telling me the reported TGI of each entry?
tested on: CAKI-1 renal; assay: NCI tumour cell line growth inhibition, 48 h

Exam item: // query TGI value for entry C[C@]12CC[C@H](O)CC1=CC[C@@H]1C2CC[C@]2(C)Nc3c(cnn3-c3ccc(F)cc3)CC12 (some centres not stated)
Marked response: > 100 µM

Exam item: // query TGI value for entry Cn1c(=O)c(Oc2ccc(F)cc2F)cc2cnc(NCCS(C)(=O)=O)nc21
Marked response: > 25 µM

Exam item: // query TGI value for entry COC(=O)c1c(-c2ccccc2)c2sc3ccccc3n2c1N
Marked response: > 100 µM

Exam item: // query TGI value for entry COc1ccc(NC2CC(C)N(C(=O)c3ccccc3)O2)cc1 (configuration not stated)
Marked response: > 10 µM

Exam item: // query TGI value for entry CCc1nc(N)nc(N)c1-c1ccc(Cl)c(N=CN(C)C)c1
Marked response: > 100 µM

Exam item: // query TGI value for entry CC(C)CCN[C@@H]1CCc2cc(O)c(N3CC(=O)NS3(=O)=O)c(F)c2C1
Marked response: > 100 µM

Exam item: // query TGI value for entry COc1ccc(N=[N+]([O-])c2ccc(OC)cc2)cc1
Marked response: > 100 µM

Exam item: // query TGI value for entry CC1=NN=C(N)NC1=CC(Sc1ccc(Cl)cc1)c1c(O)ccc2ccccc12 (configuration not stated)
Marked response: > 69.6 µM

Exam item: // query TGI value for entry COC(=O)C1=CC2OC1(C)CCC2=O (configuration not stated)
Marked response: > 100 µM

Exam item: // query TGI value for entry CCOC(OC1=C(C#N)CCCC1)C(C)[Se]c1ccccc1 (configuration not stated)
Marked response: > 100 µM

Exam item: // query TGI value for entry Cn1c2ccccc2c(=O)c2[nH]c3ccccc3c21
Marked response: > 100 µM

Exam item: // query TGI value for entry O=c1[nH]n(Cc2ccccc2Cl)c2ccccc12
Marked response: > 100 µM

###

reported.endpoint: GI50

Exam item: Give recorded GI50 with COLO 205 colon for the following molecule: Cc1nc(Nc2nc3ccccc3o2)nc(-c2cccc([N+](=O)[O-])c2)c1C(=O)Nc1ccc(F)c(Cl)c1
Marked response: 1780 nM

Exam item: Give recorded GI50 with COLO 205 colon for the following molecule: CCN(CC)CCOc1ccc(C(=O)/C=C\c2ccc(Cl)cc2Cl)cc1
Marked response: 1950 nM

Exam item: Give recorded GI50 with COLO 205 colon for the following molecule: CCCNc1nc2ccccc2c2c1S(=O)(=O)c1ccc(Cl)cc1C2=O
Marked response: 2100 nM

Exam item: Give recorded GI50 with COLO 205 colon for the following molecule: C/C=C(\C)C(=O)N[C@H]1C(O)C[C@]2(C)C3CC[C@@]4(C)C(CC[C@@H]4C(C)N(C)C)C3CCC2C1O (some centres undefined)
Marked response: 1740 nM

###

Would you mind telling me the reported TGI of each entry?
test system: HT29 colon; test: NCI tumour cell line growth inhibition, 48 h

Exam item: // query TGI value for entry CC(=O)OCC(Br)C1(C)CCC(C(C)(C)Br)O1 (centres undefined)
Marked response: > 100 µM

Exam item: // query TGI value for entry CC(=O)c1sc(=N)n(-c2c(C)cccc2C)c1C
Marked response: > 100 µM

Exam item: // query TGI value for entry COc1ccc(CCNC(=O)[C@H]2CCCC[C@@H]2CCO)cc1OC
Marked response: > 100 µM

Exam item: // query TGI value for entry O=[N+]([O-])c1cccc(C2=NOC3C4CCC(C4)C23)c1 (centres undefined)
Marked response: > 100 µM

Exam item: // query TGI value for entry COc1ccc(N=[N+]([O-])c2ccc(OC)cc2)cc1
Marked response: > 100 µM

Exam item: // query TGI value for entry CN(C)Cc1cc(C(C)(C)C)cc(C2CCCCC2)c1O
Marked response: 13.5 µM

Exam item: // query TGI value for entry COc1ccc(CCNCCCC2c3ccccc3-c3ccccc32)cc1OC
Marked response: 16.1 µM

Exam item: // query TGI value for entry N#CC(C#N)=Cn1c(=S)[nH]c2ccccc21
Marked response: > 100 µM

Exam item: // query TGI value for entry Cc1ccc(NC(=O)C(=O)Cc2cc[n+]([O-])cc2)cc1
Marked response: > 100 µM

Exam item: // query TGI value for entry CCN(CC)CCSCCCNc1c2ccc(Cl)cc2nc2ccc(OC)cc12
Marked response: 1.94 µM

Exam item: // query TGI value for entry O=C1OC(c2ccccc2)=N/C1=C\c1cccc(F)c1
Marked response: > 100 µM

Exam item: // query TGI value for entry CC(C)CCN[C@@H]1CCc2cc(O)c(N3CC(=O)NS3(=O)=O)c(F)c2C1
Marked response: > 100 µM

Exam item: // query TGI value for entry CC[C@@H]1/C=C/C=C/C[C@H](C)[C@@H](O)[C@](C)(O)C(=O)[C@H](C)[C@@H](O)[C@H](C)C(=O)[C@H](C)[C@@H](O)[C@H](C)/C=C/C(=O)O[C@H]2[C@@H](C)[C@@H](CC1)O[C@@]1(CC[C@@H](C)[C@@H](CC(C)O)O1)[C@@H]2C (some centres undefined)
Marked response: 4.19 µM

Exam item: // query TGI value for entry Cc1cccc2c(=O)c3cccc([C@@H](C)C(=O)O)c3oc12
Marked response: > 100 µM

Exam item: // query TGI value for entry [Cl][Cd][Cl]
Marked response: 130 µM

Exam item: // query TGI value for entry O=C(NNC(=O)c1ccccc1O)c1ccc(O)cc1
Marked response: > 100 µM

Exam item: // query TGI value for entry C/C=C/[C@H](O[Si](C)(C)C(C)(C)C)[C@@H](O)/C=C/C(=O)OCC
Marked response: 39.2 µM

Exam item: // query TGI value for entry COc1cc(C(=O)Oc2c(C#N)sc3c2c(=O)n(-c2ccccc2)c(=S)n3-c2ccccc2)cc(OC)c1OC
Marked response: 22.4 µM

Exam item: // query TGI value for entry CC(C)C(NC(=O)C(Cc1ccccc1)NC(=O)[C@H]1CCC[C@H]1NC(=O)C(N)Cc1ccc(O)cc1)C(N)=O (some centres undefined)
Marked response: > 100 µM

Exam item: // query TGI value for entry Cc1ccc(S(=O)(=O)NCCCSCCSCCCN)cc1
Marked response: > 100 µM

Exam item: // query TGI value for entry O=c1oc2ccc([N+](=O)[O-])cc2c(Nc2ccc3c(c2)S(=O)(=O)c2ccccc2O3)c1[N+](=O)[O-]
Marked response: > 100 µM

Exam item: // query TGI value for entry O=C(/C=C(\O)c1ccccc1)c1cc(-c2ccccc2)n(-c2ccccc2)n1
Marked response: 18.7 µM

Exam item: // query TGI value for entry O=C1C=CC(CC(=O)c2ccc3ccccc3c2)O1 (centres undefined)
Marked response: 33.1 µM

Exam item: // query TGI value for entry Cc1cc(Cl)ccc1C1OC(=O)c2c1ccc1ccccc21 (centres undefined)
Marked response: > 100 µM
